# testName: log p
# Format: physicochemical
Below, each entry is listed alongside its reported log p.
Output: the number by itself.

Recorded results for 5 molecules are shown here.
Query: Record request: log p value, item CCC(C)CNc1c(-c2c(F)cc(F)cc2F)c(Cl)nc2ncnn12 (centres unmarked) [Example 11]
Result: 3.26

Query: Quick one: CC1CCN(c2c(-c3c(F)cc(F)cc3F)c(Cl)nc3ncnn23)NC1 (centres unmarked) [Example 274]
Result: 3.05

Query: Let us now turn to Fc1cc(F)c(-c2c(Cl)nc3ncnn3c2N2CCC(C(F)(F)F)CC2)c(F)c1 [Example 160]
Result: 3.41

Query: And what about the molecule C[C@H](Nc1c(-c2c(F)cc(C(F)(F)F)c(F)c2F)c(Cl)nc2ncnn12)C(F)(F)F [Example 41] ?
Result: 3.6

Query: Also need CC1=CCCN(c2c(-c3ccc(F)cc3F)c(Cl)nc3ncnn23)C1 [Example 192] , thanks.
Result: 3.3

Next:
Query: I am curious: what log p value has been reported for Fc1c(F)c(F)c(-c2c(Cl)nc3ncnn3c2NCC(F)(F)F)c(F)c1F [Example 113] ?
Result: 3

Query: Quick one: Fc1ccccc1-c1c(Cl)nc2ncnn2c1N1CCC(C(F)(F)F)CC1 [Example 166]
Result: 3.23

Query: Let us now turn to CN1CCN(c2c(-c3c(F)cc(C(F)(F)F)cc3Cl)c(Cl)nc3ncnn23)CC1 [Example 174]
Result: 1.68

====

# testName: log p
# Type: physicochemical
propertyMeasured: log p
Number only, no unit.

Please review the following examples before continuing.
Query: State the recorded log p for this entry: `Fc1c(F)c(F)c(-c2c(Cl)nc3ncnn3c2N2CCOCC2)c(F)c1F`
Result: 2.69

Query: Now give it for `C=C(C)CN(CC)c1c(-c2c(F)cc(F)cc2F)c(Cl)nc2ncnn12` too.
Result: 3.6

Query: Cool, now CC(C)CC(C)Nc1c(-c2c(F)cc(F)cc2F)c(Cl)nc2ncnn12 (stereo not shown)
Result: 3.59

Query: Another molecule to look at: `CCCNc1c(-c2c(F)c(F)c(F)c(F)c2F)c(Cl)nc2ncnn12`
Result: 3.05

Query: // same read-out, input: `CC(C)[C@@H](C)Nc1c(-c2cc(F)ccc2F)c(Cl)nc2ncnn12`
Result: 3.05

***
Query: Param item = CC(Nc1c(-c2c(F)cccc2F)c(Cl)nc2ncnn12)C(F)(F)F (stereo not shown) ; retrieve measured log p.
Result: 2.64

Query: Same thing, different molecule: CCC(C)Nc1c(-c2ccccc2)c(Cl)nc2ncnn12 (stereo not shown)
Result: 2.78

Query: Would you mind doing CC(Nc1c(-c2ccc(F)c(Cl)c2)c(Cl)nc2ncnn12)C(F)(F)F (stereo not shown) as well?
Result: 3.18

Query: Now try `C[C@H](Nc1c(-c2c(F)cc(F)cc2C(F)(F)F)c(Cl)nc2ncnn12)C(F)(F)F` .
Result: 3.16

Query: Also, `C[C@H](Nc1c(-c2cccc3c2OC(F)(F)O3)c(Cl)nc2ncnn12)C(F)(F)F` please.
Result: 3.16

====

# testName: log p
# Format: physicochemical
Label scheme for log p: lower than 3 is Not satisfied, 3 and above is Satisfied.

// below: answered compounds
Query: Does Fc1cccc(F)c1-c1c(Cl)nc2ncnn2c1N1CCCCC1C(F)(F)F (stereo not drawn) have a reported log p of at least 3?
Result: Satisfied

Query: Same again, this time with `C=C(C)CN(CC)c1c(-c2cccc3c2OC(F)(F)O3)c(Cl)nc2ncnn12`
Result: Satisfied

Query: Try `CNc1c(-c2c(F)cccc2F)c(Cl)nc2ncnn12` next.
Result: Not satisfied

Query: Next compound up: CC1CCCN1c1c(-c2ccccc2)c(Cl)nc2ncnn12 (stereo not drawn)
Result: Not satisfied

Continue with the next compound.
Query: Test whether the compound `CN(C)c1c(-c2c(F)cccc2F)c(Cl)nc2ncnn12` records log p of 3 or higher.
Result: Not satisfied

====

# testName: log p
# Assay type: physicochemical
Cut-off 3 on log p, inclusive. At or above means yes; below means no.

Consider the following illustrative entries.
Query: Kindly determine if log p recorded for `Clc1ccccc1-c1c(Cl)nc2ncnn2c1N1CCCN1` is above or exactly 3.
Result: no

Query: How about `CC(C)Nc1c(-c2ccc(F)c(Cl)c2)c(Cl)nc2ncnn12` ?
Result: no

Query: Try this compound next: CC1CNN(c2c(-c3ccccc3Cl)c(Cl)nc3ncnn23)CC1C (stereo not drawn)
Result: yes

Query: Request: `C[C@H](Nc1c(-c2cc(C(F)(F)F)ccc2C(F)(F)F)c(Cl)nc2ncnn12)C(F)(F)F`
Result: yes

Others:
Query: I'd appreciate it if you could say whether `C=CCN(C)c1c(-c2ccc(F)cc2F)c(Cl)nc2ncnn12` has log p at least equal to 3.
Result: no

Query: Record: `C[C@H](Nc1c(-c2c(Cl)cc(OC(F)(F)F)cc2Cl)c(Cl)nc2ncnn12)C(F)(F)F`
Result: yes

Query: Could you do the same for `CCNc1c(-c2c(F)cc(C(F)(F)F)cc2Cl)c(Cl)nc2ncnn12` , please?
Result: yes

====

# testName: log p
# Assay type: physicochemical
# reportedConditions: read-out: log p
propertyMeasured: log p
Quick one: just the number, no unit, thanks!

Query: Could you tell me which log p is on file for CC1CCN(c2c(-c3c(F)cc(F)cc3F)c(Cl)nc3ncnn23)CC1 [Example 156] ?
Result: 3.6

====

# testName: log p
# Type: physicochemical
log p overview
# output: bare number, no unit

Query: Requested field: log p. Item: CC1CN(c2c(-c3ccccc3F)c(Cl)nc3ncnn23)CC(C)O1 (stereo not drawn) [Example 162]
Result: 2.67

Query: And what about the molecule C[C@H](Nc1c(-c2cc(F)ccc2F)c(Cl)nc2ncnn12)C(F)(F)F [Example 62] ?
Result: 2.74

Query: Same question, C[C@H](Nc1c(-c2c(F)cc(F)cc2F)c(Cl)nc2ncnn12)C(C)(C)C [Example 68] this time
Result: 3.54

Query: And then Cc1cc(C)n(-c2c(-c3c(F)cccc3Cl)c(Cl)nc3ncnn23)n1 [Example 268] , what is it?
Result: 2.87

Query: Similarly, Clc1nc2ncnn2c(N2CCCC2)c1-c1ccccc1 [Example 250] ?
Result: 2.5

Query: Next up: C[C@H](Nc1c(-c2c(Cl)cc(C(F)(F)F)cc2Cl)c(Cl)nc2ncnn12)C(F)(F)F [Example 36]
Result: 3.79

Query: Follow-up item: CCN(CC)c1c(-c2c(F)c(F)c(F)c(F)c2F)c(Cl)nc2ncnn12 [Example 22]
Result: 3.44

Query: Same for Fc1ccccc1-c1c(Cl)nc2ncnn2c1N1CCOCC1 [Example 200]
Result: 2.09

Continuing:
Query: Please report the recorded log p for Fc1cc(C(F)(F)F)cc(Cl)c1-c1c(Cl)nc2ncnn2c1N1CCCC1 [Example 176] .
Result: 3.5

Query: Can you check Fc1cccc(F)c1-c1c(Cl)nc2ncnn2c1N1CCCO1 [Example 157] next?
Result: 2.07

Query: Thanks! And CCNc1c(-c2c(F)c(F)c(F)c(F)c2F)c(Cl)nc2ncnn12 [Example 25] ?
Result: 2.72

Query: How about this molecule: Fc1ccc(-c2c(Cl)nc3ncnn3c2N2CCCCN2)c(C(F)(F)F)c1 [Example 249]
Result: 2.98

Query: How about this molecule: Fc1ccc(-c2c(Cl)nc3ncnn3c2N2CC=CCC2)c(F)c1 [Example 186]
Result: 2.94

====

# testName: log p
# Assay type: physicochemical
propertyMeasured: log p
// return a plain number; no unit text

Below are worked cases with known answers.
Query: Requested field: log p. Item: `C[C@H](Nc1c(-c2ccc(C(F)(F)F)c(F)c2F)c(Cl)nc2ncnn12)C(F)(F)F`
Result: 3.52

Query: How about `CC(C)[C@H](C)Nc1c(-c2c(F)cc(F)cc2F)c(Cl)nc2ncnn12` ?
Result: 3.17

Query: Try this compound too: `Fc1ccccc1-c1c(Cl)nc2ncnn2c1N1CCSCC1`
Result: 2.68

Query: Same for `Fc1cccc(Cl)c1-c1c(Cl)nc2ncnn2c1N1CC=CCO1`
Result: 2.78

Query: Note, next up: `FCCCNc1c(-c2c(F)cc(F)cc2F)c(Cl)nc2ncnn12`
Result: 2.3

New cases:
Query: Any idea what log p was measured for CC(C)C(C)Nc1c(-c2c(F)cc(F)cc2F)c(Cl)nc2ncnn12 (stereo not shown) [Example 73] ?
Result: 3.2

Query: Check `CNc1c(-c2c(F)cc(F)cc2F)c(Cl)nc2ncnn12` too.
Result: 2.01

Query: // query: `C=C(C)CN(C)c1c(-c2ccc(F)cc2F)c(Cl)nc2ncnn12`
Result: 3.21

Query: Try the compound `CC1CCN(c2c(-c3ccc(F)cc3F)c(Cl)nc3ncnn23)CC1`
Result: 3.54

Query: One more compound: `CC(C)(C)CNc1c(-c2ccccc2)c(Cl)nc2ncnn12`
Result: 3.17

Query: Next compound up: `C=C(C)CN(CC)c1c(-c2c(F)cccc2F)c(Cl)nc2ncnn12`
Result: 3.42

Query: Then what about the compound `C=C(C)CN(CC)c1c(-c2c(Cl)cccc2Cl)c(Cl)nc2ncnn12` ?
Result: 3.92

Query: // same read-out, input: CC1CCCCN1c1c(-c2ccccc2)c(Cl)nc2ncnn12 (stereo not shown)
Result: 3.35

Query: Do the same for CC(Nc1c(-c2c(F)cc(F)cc2F)c(Cl)nc2ncnn12)C(F)(F)F (stereo not shown) [Example 29] please
Result: 2.88

Query: Lookup `Cc1cc(C)c(-c2c(Cl)nc3ncnn3c2N2CCOCC2)c(C)c1`
Result: 2.8

Query: Could you do the same for CC1CCCN1c1c(-c2ccccc2Cl)c(Cl)nc2ncnn12 (stereo not shown) , please?
Result: 3.1

Query: Now try `CC1=CCCN(c2c(-c3c(F)cc(C(F)(F)F)cc3Cl)c(Cl)nc3ncnn23)C1` .
Result: 4.23

Query: Would you mind doing `CC1CCN(c2c(-c3ccccc3C(F)(F)F)c(Cl)nc3ncnn23)CC1` as well?
Result: 3.8

Query: What about this compound? CC(Nc1c(-c2c(F)cc(C(F)(F)F)cc2F)c(Cl)nc2ncnn12)C(F)(F)F (stereo not shown)
Result: 3.09
